- ASSAY EXPLANATION: Chemical stability of the compound in phosphate buffer at pH 7.4 assessed as compound remaining at 100 uM after 2 days by HPLC analysis
- Assay type: physicochemical
- ASSAY CONTEXT: read-out: Stability
READOUT: remaining at 48 h, 100 µM

• Nc1nnc(SC(C(=O)Nc2cc(Cl)cc(Cl)c2)c2ccccc2)[nH]1 (stereo unspecified) = > 80%

----------
- ASSAY EXPLANATION: Metabolic stability in human plasma assessed as compound remaining after 2 days by HPLC analysis
- Type: ADME, cell-free
- ASSAY CONTEXT: read-out: Stability
READOUT: remaining at 48 h

- Nc1nnc(SC(C(=O)Nc2cc(Cl)cc(Cl)c2)c2ccccc2)[nH]1 (stereo unspecified): > 80%
